Hey, just so you know, these numbers are from ChEMBL document CHEMBL5058564.

// reported Growth Rate per item
Tested on: U2OS
ASSAY_TEXT: Incucyte cell viability with U2OS; note: unitless GR value; below 1 slowed growth and below 0 cell loss
Type: toxicity, cell-based
RECORDED_CONDITIONS: human, 12 h, 10 µM, compound concentration 10 uM, replicate number 1, timepoint 12 hours
Please give the numeric answer without any surrounding text.

The cases that follow already have their Growth Rate on record.
COMPOUND: O=C1Nc2ccc(I)cc2/C1=C/c1cc(Br)c(O)c(Br)c1
RESULT_TYPE: Growth Rate
OBSERVED_RESULT: 0.89

COMPOUND: N[C@@]1(C(=O)O)CC[C@H]2[C@H](C(=O)O)[C@H]21
RESULT_TYPE: Growth Rate
OBSERVED_RESULT: 0.67

COMPOUND: CCNC(=O)[C@H]1O[C@@H](n2cnc3c(N)nc(NCCc4ccc(CCC(=O)O)cc4)nc32)[C@H](O)[C@@H]1O.Cl
RESULT_TYPE: Growth Rate
OBSERVED_RESULT: 0.64

Request: Retrieve Growth Rate measured for NC(=O)c1cccc(-c2cc(Nc3ccc(OC(F)(F)F)cc3)ncn2)c1 and print it.
Response: 0.98

Request: Retrieve Growth Rate measured for CCCN(CCC)CCc1cccc2c1CC(=O)N2.Cl [ROPINIROLE HYDROCHLORIDE] and print it.
Response: 0.77

###

System: U2OS
ASSAY_TEXT: Incucyte cell viability with U2OS; note: unitless GR value; below 1 slowed growth and below 0 cell loss
Assay type: toxicity, cell-based
RECORDED_CONDITIONS: human, 18 h, 10 µM, compound concentration 10 uM, replicate number 2, timepoint 18 hours
Growth Rate under 0.8 gets condition met, anything at or over 0.8 gets condition not met.

Would you please look over these solved cases?
COMPOUND: CCC(=O)NC[C@@H]1C[C@H]1c1cccc2c1CCO2 [TASIMELTEON]
EXPERIMENTAL_TARGET: U2OS
CATEGORY: condition not met

COMPOUND: O=C(O)CCn1c2c(c3ccccc31)C[C@H](NS(=O)(=O)c1ccc(F)cc1)CC2 [RAMATROBAN]
EXPERIMENTAL_TARGET: U2OS
CATEGORY: condition not met

COMPOUND: Brc1c(N=C2NCCN2)ccc2nccnc12.O=C(O)C(O)C(O)C(=O)O
EXPERIMENTAL_TARGET: U2OS
CATEGORY: condition not met

Request: Determine if CNc1nc(NCc2ncccn2)c2c(-c3ccc4ncccc4c3)c[nH]c2n1 shows Growth Rate strictly lower than 0.8.
Response: condition met

Request: Determine if Nc1nc(Nc2ccccc2)nc2c1ncn2[C@@H]1O[C@H](CO)[C@@H](O)[C@H]1O shows Growth Rate strictly lower than 0.8.
Response: condition not met

Request: Determine if O=C(NCCN1CCC(n2c(=O)[nH]c3cc(Cl)ccc32)CC1)c1ccc(F)cc1 [HALOPEMIDE] shows Growth Rate strictly lower than 0.8.
Response: condition not met

Request: Determine if C[C@H]1CN(C[C@H](Cc2ccccc2)C(=O)NCC(=O)O)CC[C@@]1(C)c1cccc(O)c1 [ALVIMOPAN] shows Growth Rate strictly lower than 0.8.
Response: condition not met

###

Test system: U2OS
ASSAY_TEXT: Incucyte cell viability with U2OS; note: unitless GR value; below 1 slowed growth and below 0 cell loss
Format: toxicity, cell-based
RECORDED_CONDITIONS: human, 0 h, 10 µM, compound concentration 10 uM, replicate number 1, timepoint 0 hours
RESULT_TYPE: Growth Rate
Please give the numeric answer without any surrounding text.

MOLECULE: CCCN(CCC)[C@@H]1CCc2ccc3[nH]c(C#N)cc3c2C1.Cl
Growth Rate: 0.61
//
MOLECULE: Cc1cc(OCCCS(C)(=O)=O)cc(C)c1-c1cccc(COc2ccc3c(c2)OC[C@H]3CC(=O)O)c1
Growth Rate: 0.26
//
MOLECULE: CC#C[C@@H](CC(=O)O)c1ccc(OCc2cccc(-c3ccc(C(F)(F)F)cc3)c2)cc1
Growth Rate: 0.35
//
MOLECULE: Cc1cc(Nc2ncc(Cl)c(Nc3ccccc3S(=O)(=O)C(C)C)n2)c(OC(C)C)cc1C1CCNCC1 [CERITINIB]
Growth Rate: -0.86
//
MOLECULE: CCCN1CCO[C@H]2c3cc(O)ccc3OC[C@@H]21.Cl
Growth Rate: 0.55

Request: Retrieve Growth Rate measured for Cn1cc(-c2ccc3occ(-c4cccc(-c5ccncc5)c4)c3n2)cn1 and print it.
Response: -0.88

Request: Retrieve Growth Rate measured for Cc1ccc(-c2ccc(F)cc2COc2ccc(CCC(=O)O)cc2)cc1 and print it.
Response: -0.34

Request: Retrieve Growth Rate measured for Cc1ccc2c(c1CCC(=O)O)CC[C@@H](NS(=O)(=O)c1ccc(Cl)cc1)C2 [TERUTROBAN] and print it.
Response: -0.59

###

Tested on: U2OS
ASSAY_TEXT: Incucyte cell viability with U2OS; note: unitless GR value; below 1 slowed growth and below 0 cell loss
Type: toxicity, cell-based
RECORDED_CONDITIONS: human, 24 h, 10 µM, compound concentration 10 uM, replicate number 2, timepoint 24 hours
RESULT_TYPE: Growth Rate
Please give the numeric answer without any surrounding text.

The cases that follow already have their Growth Rate on record.
COMPOUND: COc1ccc2c(c1)C(C(=O)N(Cc1ccc(N(C)C)cc1)c1ccc(C(C)C)cc1)CCC2.Cl (configuration not stated)
OBSERVED_RESULT: 0.79
//
COMPOUND: CNC[C@H](O)c1ccc(O)c(O)c1 [EPINEPHRINE]
OBSERVED_RESULT: 0.94
//
COMPOUND: CC(C)Oc1ccc(-c2nc(-c3cccc4c3CC[C@@H]4NCCO)no2)cc1C#N
OBSERVED_RESULT: 0.04
//
COMPOUND: COc1ccc2[nH]cc(CCNC(C)=O)c2c1
OBSERVED_RESULT: 0.97
//
COMPOUND: CSCC[C@H](NC=O)C(=O)N[C@@H](CC(C)C)C(=O)N[C@@H](Cc1ccccc1)C(=O)O
OBSERVED_RESULT: 0.97
//
COMPOUND: C[C@H]1[C@H](OC(=O)CCC(=O)O)O[C@@H]2O[C@@]3(C)CC[C@H]4[C@H](C)CC[C@@H]1[C@@]24OO3 [ARTESUNATE]
OBSERVED_RESULT: 0.81
//
COMPOUND: CO/C1=C/C(C)=C\[C@@H](C)[C@@H](O)[C@@H](C)C/C(C)=C\C=C/[C@H](OC)C([C@@H](C)[C@@H](O)[C@H](C)[C@@]2(O)C[C@@H](O)[C@H](C)[C@@H](C(C)C)O2)OC1=O (some centres not stated)
OBSERVED_RESULT: 0.12
//
COMPOUND: CCC(C)n1ncn(-c2ccc(N3CCN(c4ccc(OC[C@@H]5CO[C@@](Cn6cncn6)(c6ccc(Cl)cc6Cl)O5)cc4)CC3)cc2)c1=O.CCC(C)n1ncn(-c2ccc(N3CCN(c4ccc(OC[C@H]5CO[C@](Cn6cncn6)(c6ccc(Cl)cc6Cl)O5)cc4)CC3)cc2)c1=O (some centres not stated)
OBSERVED_RESULT: 0.94

Please examine the following record next.
Request: Retrieve Growth Rate measured for O=C1[C@H](Cc2ccc(O)cc2)N2C(=O)CCN(C(=O)NCc3ccccc3)[C@H]2CN1Cc1cccc2ccccc12 and print it.
Response: 0.57

###

// reported Growth Rate per item
Test system: HEK-293T
ASSAY_TEXT: Incucyte cell viability with HEK293T; note: unitless GR value; below 1 slowed growth and below 0 cell loss
Format: toxicity, cell-based
RECORDED_CONDITIONS: human, 6 h, 10 µM, compound concentration 10 uM, replicate number 1, timepoint 6 hours
Please give the numeric answer without any surrounding text.

The cases that follow already have their Growth Rate on record.
COMPOUND: C[C@H]1[C@H]2CC[C@H]3[C@@H]4CC=C5C[C@@H](N(C)C)CC[C@]5(C)[C@H]4CC[C@]23CN1C [CONESSINE]
Growth Rate: 0.67
--
COMPOUND: CC(=O)O[C@H]1C(=O)[C@@]2(C)[C@H]([C@H](OC(=O)c3ccccc3)[C@]3(O)C[C@H](OC(=O)[C@H](O)[C@@H](NC(=O)c4ccccc4)c4ccccc4)C(C)=C1C3(C)C)[C@]1(OC(C)=O)CO[C@@H]1C[C@@H]2O [PACLITAXEL]
Growth Rate: -0.58
--
COMPOUND: CS(=O)(=O)c1ccc(C(=O)Nc2ccc(Cl)c(-c3ccccn3)c2)c(Cl)c1 [VISMODEGIB]
Growth Rate: 0.99
--
COMPOUND: O=C(NCCN1CCC(n2c(=O)[nH]c3cc(Cl)ccc32)CC1)c1ccc(F)cc1 [HALOPEMIDE]
Growth Rate: -0.01
--
COMPOUND: Nc1cnc(N2CCc3cc(S(=O)(=O)Nc4c(F)cc(Cl)cc4F)cc(N4CCCC4=O)c32)nc1 [TP-020n]
Growth Rate: 0.61

Request: Retrieve Growth Rate measured for CN1[C@@H]2CC[C@H]1C[C@@H](OC(=O)C(CO)c1ccccc1)C2 (some centres not stated) [ATROPINE] and print it.
Response: 0.9

Request: Retrieve Growth Rate measured for Cc1nc2ccc(Oc3ccc(F)cc3)cc2c(=O)n1C[C@H]1CCCN(C(C)C)C1.Cl and print it.
Response: 0.01
